# tgt: T1, human high affinity trimeric IL-2 receptor (CD25/CD122/CD132) (human, UniProt P01589 22-272; P14784 27-551; P31785 23-369)
# T1 sequence 1: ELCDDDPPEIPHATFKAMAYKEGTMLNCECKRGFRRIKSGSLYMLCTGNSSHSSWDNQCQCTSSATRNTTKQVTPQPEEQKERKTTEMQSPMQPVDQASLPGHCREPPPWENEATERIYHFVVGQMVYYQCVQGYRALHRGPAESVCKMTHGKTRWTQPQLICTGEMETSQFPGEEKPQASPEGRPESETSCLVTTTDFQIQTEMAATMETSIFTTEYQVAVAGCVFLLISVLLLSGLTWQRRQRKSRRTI
# T1 sequence 2: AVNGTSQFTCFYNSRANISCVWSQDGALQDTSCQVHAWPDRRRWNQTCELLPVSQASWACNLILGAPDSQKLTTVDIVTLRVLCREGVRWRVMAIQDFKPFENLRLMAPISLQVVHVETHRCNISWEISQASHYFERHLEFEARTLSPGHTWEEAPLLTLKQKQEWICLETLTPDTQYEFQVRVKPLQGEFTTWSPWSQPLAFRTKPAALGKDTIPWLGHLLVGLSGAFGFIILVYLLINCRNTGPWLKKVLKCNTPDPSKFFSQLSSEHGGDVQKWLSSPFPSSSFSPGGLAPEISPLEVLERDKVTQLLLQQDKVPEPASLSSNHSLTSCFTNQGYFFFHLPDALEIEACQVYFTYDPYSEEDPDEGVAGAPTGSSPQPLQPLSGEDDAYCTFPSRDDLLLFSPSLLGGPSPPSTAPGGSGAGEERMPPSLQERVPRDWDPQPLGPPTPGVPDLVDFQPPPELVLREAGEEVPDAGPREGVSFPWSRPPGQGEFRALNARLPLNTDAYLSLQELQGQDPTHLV
# T1 sequence 3: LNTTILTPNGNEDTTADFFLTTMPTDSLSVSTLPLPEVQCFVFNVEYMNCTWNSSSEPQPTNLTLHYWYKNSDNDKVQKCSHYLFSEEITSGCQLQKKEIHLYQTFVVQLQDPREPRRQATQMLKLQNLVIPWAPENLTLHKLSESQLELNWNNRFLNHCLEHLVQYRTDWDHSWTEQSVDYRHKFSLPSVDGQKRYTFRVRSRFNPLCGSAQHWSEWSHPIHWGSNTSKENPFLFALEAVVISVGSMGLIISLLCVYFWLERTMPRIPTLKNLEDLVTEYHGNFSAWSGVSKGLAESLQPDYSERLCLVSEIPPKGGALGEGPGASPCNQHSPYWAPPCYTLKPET
# measurement.description: cell-based or functional assay
measure: pSTAT5 ratio YT CD25/YT, dilution factor 4, upper table
Just the number.

binder	measured.value
VEH (ligand) cytokine: APTSSSTKKTQLQLEHLVLDLEMILNGINNYKNPKLTRMLTFKFYMPKKATELKHLQCLEEELKPLEEVLNLAQSKNFHLRPRDLISNINVIVLELKGSETTFMCEYADETATIVEFLNRWITFCHSIISTLT	1.6
QEH (ligand) cytokine: APTSSSTKKTQLQLEHLQLDLEMILNGINNYKNPKLTRMLTFKFYMPKKATELKHLQCLEEELKPLEEVLNLAQSKNFHLRPRDLISNINVIVLELKGSETTFMCEYADETATIVEFLNRWITFCHSIISTLT	1.3
AEH (ligand) cytokine: APTSSSTKKTQLQLEHLALDLEMILNGINNYKNPKLTRMLTFKFYMPKKATELKHLQCLEEELKPLEEVLNLAQSKNFHLRPRDLISNINVIVLELKGSETTFMCEYADETATIVEFLNRWITFCHSIISTLT	2.6
hIL2 mutein REE (L18R, Q22E, Q126E) (ligand) APTSSSTKKTQLQLEHLRLDLEMILNGINNYKNPKLTRMLTFKFYMPKKATELKHLQCLEEELKPLEEVLNLAQSKNFHLRPRDLISNINVIVLELKGSETTFMCEYADETATIVEFLNRWITFCESIISTLT	2.9
hIL2 mutein REH (L18R, Q22E, Q126H) (ligand) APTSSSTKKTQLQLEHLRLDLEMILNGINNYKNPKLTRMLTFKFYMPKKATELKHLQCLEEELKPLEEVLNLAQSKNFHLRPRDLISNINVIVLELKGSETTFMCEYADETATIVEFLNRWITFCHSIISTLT	1

Determine its reported pSTAT5 ratio YT CD25/YT, dilution factor 4, upper table: SEH (ligand) cytokine: APTSSSTKKTQLQLEHLSLDLEMILNGINNYKNPKLTRMLTFKFYMPKKATELKHLQCLEEELKPLEEVLNLAQSKNFHLRPRDLISNINVIVLELKGSETTFMCEYADETATIVEFLNRWITFCHSIISTLT 1.5

Give reported pSTAT5 ratio YT CD25/YT, dilution factor 4, upper table value for hIL2 mutein REK (L18R, Q22E, Q126K) (ligand) APTSSSTKKTQLQLEHLRLDLEMILNGINNYKNPKLTRMLTFKFYMPKKATELKHLQCLEEELKPLEEVLNLAQSKNFHLRPRDLISNINVIVLELKGSETTFMCEYADETATIVEFLNRWITFCKSIISTLT 1.6

Return pSTAT5 ratio YT CD25/YT, dilution factor 4, upper table (reported value) for this binder: WEH (ligand) cytokine: APTSSSTKKTQLQLEHLWLDLEMILNGINNYKNPKLTRMLTFKFYMPKKATELKHLQCLEEELKPLEEVLNLAQSKNFHLRPRDLISNINVIVLELKGSETTFMCEYADETATIVEFLNRWITFCHSIISTLT 1.4

Input IEH (ligand) cytokine: APTSSSTKKTQLQLEHLILDLEMILNGINNYKNPKLTRMLTFKFYMPKKATELKHLQCLEEELKPLEEVLNLAQSKNFHLRPRDLISNINVIVLELKGSETTFMCEYADETATIVEFLNRWITFCHSIISTLT , output reported pSTAT5 ratio YT CD25/YT, dilution factor 4, upper table. 1.4

State its pSTAT5 ratio YT CD25/YT, dilution factor 4, upper table for this binder: FEH (ligand) cytokine: APTSSSTKKTQLQLEHLFLDLEMILNGINNYKNPKLTRMLTFKFYMPKKATELKHLQCLEEELKPLEEVLNLAQSKNFHLRPRDLISNINVIVLELKGSETTFMCEYADETATIVEFLNRWITFCHSIISTLT 1.2

Every entry's value here was drawn from patent US20210275641A1.
